Reference source: the RNAGym collection of RNA variant scans (doi:10.1126/science.aae0568)

Could you please report measured yeast fitness for the items listed next?
B1: tRNA (parent)
chain: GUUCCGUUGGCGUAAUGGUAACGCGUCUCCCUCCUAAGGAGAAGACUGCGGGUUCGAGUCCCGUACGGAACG

- Variants of: B1
- Method: yeast fitness relative to wild type (ratio to wild type); higher = fitter; tRNA-Arg(CCU), competitive growth, 37 C, YPD
This sample holds only a part of the variants without activity.
Could you keep your reply to the number by itself?

// field: yeast fitness; key: U47A C49G ; value = 0.767

// field: yeast fitness; key: C24U A37G A70U ; value = 0.536

// field: yeast fitness; key: U3A U59A ; value = 0.658

// field: yeast fitness; key: U47A C49U A65C ; value = 0.702

// field: yeast fitness; key: U2A C60G ; value = 0.666

// field: yeast fitness; key: C5U U13A A43C C46G ; value = 0.627

// field: yeast fitness; key: C46U G58A C62U ; value = 0.665

// field: yeast fitness; key: C4U G12A ; value = 1.11

// field: yeast fitness; key: A21G C33G C34G ; value = 0.547

// field: yeast fitness; key: C5G G44C C49G ; value = 0.521

// field: yeast fitness; key: C22G C31G C66U ; value = 0.64

// field: yeast fitness; key: G39A C66U ; value = 0.797

// field: yeast fitness; key: C22G C31U U64C ; value = 0.748

// field: yeast fitness; key: C5U A15U U19C ; value = 0.672

// field: yeast fitness; key: A40C G67A ; value = 0.846

// field: yeast fitness; key: G12C C22G G25C G48A ; value = 0.915

// field: yeast fitness; key: C31G A36U ; value = 0.615

// field: yeast fitness; key: U7G A36C ; value = 0.614

// field: yeast fitness; key: A45U C55G ; value = 0.528

// field: yeast fitness; key: G18A U32C A70G ; value = 0.599

// field: yeast fitness; key: U8C C27U C34G C60A ; value = 0.503

// field: yeast fitness; key: U8C U28G A40U ; value = 0.588

// field: yeast fitness; key: U7C C29G ; value = 0.677

// field: yeast fitness; key: G6A U26G G48A C61U ; value = 0.684

// field: yeast fitness; key: C4A C5G A57U G68U ; value = 0.575

// field: yeast fitness; key: G56A A69U ; value = 1.01

// field: yeast fitness; key: G12C C24U ; value = 0.651

// field: yeast fitness; key: U3C C66U ; value = 0.904
